# Protocol conditions: 326.9 K; 101.33 kPa; Liquid; Vibrating tube method
Property: mass density (kg/m3)

In [3]: df
Out[3]:
                                   compound      property  measured
0  CCCCC(=O)[O-].C[NH2+]CCO [2-hydroxy-N-methylethanaminium pentanoate]  mass density   996.626
1  CCC(=O)[O-].C[NH2+]CCO [2-hydroxy-N-methylethanaminium propionate]  mass density   1052.29
2  C[NH2+]CCO.O=C[O-] [2-hydroxy-N-methylethanaminium formate]  mass density   1112.28
3  CC(=O)[O-].C[NH2+]CCO [N-methyl-2-hydroxyethylammonium acetate]  mass density   1083.28
4  CCCC(=O)[O-].C[NH2+]CCO [N-methyl-2-hydroxyethylammonium butanoate]  mass density   1019.65
5  CC(C)C(=O)[O-].C[NH2+]CCO [2-hydroxy-N-methylethanaminium isobutyrate]  mass density   1024.52
